Measured AC50 values are reported for all entries that follow.
SYSTEM UNDER TEST: Cytochrome P450 3A4 (Homo sapiens, UniProt P08684);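 note: CYP3A4 tested as one member of a cytochrome P450 panel screen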
Sequence (P08684 whole entry): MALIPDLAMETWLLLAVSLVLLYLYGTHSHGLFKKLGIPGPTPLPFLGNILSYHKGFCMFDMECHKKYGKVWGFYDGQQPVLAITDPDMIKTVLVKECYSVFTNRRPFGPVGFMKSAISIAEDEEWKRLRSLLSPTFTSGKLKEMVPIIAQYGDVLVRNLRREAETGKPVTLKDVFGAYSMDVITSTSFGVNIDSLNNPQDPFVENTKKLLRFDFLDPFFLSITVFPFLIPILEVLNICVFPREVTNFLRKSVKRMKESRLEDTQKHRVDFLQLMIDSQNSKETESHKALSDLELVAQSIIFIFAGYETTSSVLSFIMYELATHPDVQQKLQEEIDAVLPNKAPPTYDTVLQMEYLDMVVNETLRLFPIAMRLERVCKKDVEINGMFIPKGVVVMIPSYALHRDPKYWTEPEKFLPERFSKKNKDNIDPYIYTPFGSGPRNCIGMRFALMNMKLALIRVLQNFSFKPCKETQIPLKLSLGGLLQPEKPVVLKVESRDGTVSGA

Examples with answers:
{"columns": ["COMPOUND", "AC50"],
 "data": [
  ["Cc1nnc(-c2cnn(-c3ccccc3)c2N)n1Cc1ccccc1", "25.1 µM (inconclusive)"],
  ["CC(C)CN1CC[C@@]2(CCCN(C(=O)c3csnn3)C2)C1", "20 µM (inconclusive)"],
  ["COc1cccc(Cn2c(=O)c(-c3cccs3)nc3cnc(Nc4cccc(OC)c4)nc32)c1", "12.6 µM (inconclusive)"],
  ["CCN1CCN(C(=O)C2c3cc(OC)c(OC)cc3C(=O)N3CCc4ccccc4C23)CC1 (stereo not given)", "28.2 µM (inconclusive)"],
  ["C=CCNC(S)=NNc1ncnc2sc3c(c12)CC(C)(C)OC3", "17.8 µM (inconclusive)"],
  ["CN1CCN(c2ncc3nc(-c4cc(F)cc(F)c4)c(=O)n(CCC#N)c3n2)CC1", "15.8 µM (inconclusive)"]
]}

// returns reported AC50 for input Cc1ccccc1CN1C2=NCCN2C(=O)C2=C1CCN(Cc1ccccc1)C2
3.98 µM (inconclusive)

Entry Cc1ccc(S(=O)(=O)n2ccc(-c3cccc(OCc4c(F)cccc4Cl)c3)n2)cc1 please
7.94 µM (inconclusive)

Entry C=CC/N=C1\CC(C)(C)CC(O)=C1C(=O)c1ccccc1 please
25.1 µM (inconclusive)

Entry COc1cccc(Cn2c(=O)c(-c3cccs3)nc3cnc(N(C)C)nc32)c1 please
15.8 µM (inconclusive)

###

SYSTEM UNDER TEST: Sentrin-specific protease 7 (Homo sapiens, UniProt Q9BQF6);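 note: Luminescence-based dose-response confirmation of ultra-high-throughput screening hits, measuring inhibition of SENP7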
Sequence (Q9BQF6 whole entry): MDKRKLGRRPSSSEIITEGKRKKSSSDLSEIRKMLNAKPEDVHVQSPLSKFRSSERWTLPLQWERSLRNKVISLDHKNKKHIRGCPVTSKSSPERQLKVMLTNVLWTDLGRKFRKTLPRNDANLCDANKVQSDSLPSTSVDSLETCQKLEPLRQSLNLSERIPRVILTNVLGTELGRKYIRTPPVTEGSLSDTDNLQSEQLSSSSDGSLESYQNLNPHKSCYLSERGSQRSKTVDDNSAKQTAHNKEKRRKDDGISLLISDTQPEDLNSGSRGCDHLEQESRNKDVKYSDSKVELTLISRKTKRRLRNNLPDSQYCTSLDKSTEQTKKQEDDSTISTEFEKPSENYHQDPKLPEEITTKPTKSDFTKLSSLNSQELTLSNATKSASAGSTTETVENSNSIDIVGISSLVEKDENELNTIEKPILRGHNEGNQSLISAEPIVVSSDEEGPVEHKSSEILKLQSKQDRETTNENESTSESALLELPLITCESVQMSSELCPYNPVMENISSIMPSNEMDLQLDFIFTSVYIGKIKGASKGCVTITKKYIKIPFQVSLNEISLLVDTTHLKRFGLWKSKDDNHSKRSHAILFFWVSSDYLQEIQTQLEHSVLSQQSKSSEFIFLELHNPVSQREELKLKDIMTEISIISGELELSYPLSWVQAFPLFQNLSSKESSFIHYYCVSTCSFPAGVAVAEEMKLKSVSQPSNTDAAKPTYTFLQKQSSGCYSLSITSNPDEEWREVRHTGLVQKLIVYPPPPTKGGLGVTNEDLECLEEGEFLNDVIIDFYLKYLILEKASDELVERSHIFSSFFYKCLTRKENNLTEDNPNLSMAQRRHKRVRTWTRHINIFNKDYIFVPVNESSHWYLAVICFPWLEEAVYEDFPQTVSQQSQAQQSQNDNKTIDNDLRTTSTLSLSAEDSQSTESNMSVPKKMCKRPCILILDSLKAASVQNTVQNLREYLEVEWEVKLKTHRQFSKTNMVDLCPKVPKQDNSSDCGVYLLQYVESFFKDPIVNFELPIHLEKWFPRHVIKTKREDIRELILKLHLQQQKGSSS
Type: functional
Activity calls are given as the source filed them.
MEASURED METRIC: IC50

Examples with answers:
{"columns": ["CHEMICAL STRING", "MEASUREMENT"],
 "data": [
  ["Cn1c(SCc2ccc(C#N)cc2Cl)nc2ccccc21", "4.57 µM (active)"],
  ["Cc1ccc(S(=O)(=O)NC(=NNC(=O)c2cccc(Cl)c2)c2ccccc2)cc1", "5.83 µM (active)"],
  ["CCOc1cccc(-c2nc3cc(C)ccc3o2)c1", "7.7 µM (active)"]
]}

Please look at the following compound next.
// returns reported IC50 for input CCOC(=O)CN1C(=O)S/C(=C\c2ccc(-c3cccc(C(=O)O)c3C)o2)C1=O
6.97 µM (active)

###

ASSAY NAME: Luminescence Cell-Based Dose Response HTS to Identify Inhibitors of 5'UTR Stem-Loop Driven Prion Protein mRNA Translation in H4 Neuroglioblastoma Cells. [Related pubchem assays: 1827 (Project Summary), 1813 (Primary HTS)]
Format: functional
Activity calls are given as the source filed them.
Measured EC50 values are reported for all entries that follow.

Examples with answers:
{"columns": ["CHEMICAL STRING", "EC50"],
 "data": [
  ["O=C(C1=C[C@@H](c2csc3ccccc23)C[C@@H](OCc2ccc(CO)cc2)O1)N1CCN(Cc2ccc3c(c2)OCO3)CC1", "> 120 µM (not active)"],
  ["COc1ccc2cc3cc(C(=O)NC4CC4)sc3nc2c1", "7.47 µM (active)"],
  ["Cn1nnnc1N=N/C(=N/Nc1ccccc1)c1ccccc1", "> 120 µM (not active)"],
  ["COC(=O)COc1ccc(-c2nccc(-c3ccccn3)n2)cc1", "7.98 µM (active)"],
  ["Cc1nn(Cc2ccccc2Cl)c(C)c1NC(=O)CCCn1nc(C)c([N+](=O)[O-])c1C", "> 120 µM (not active)"],
  ["CN1CCN(c2ccc([N+](=O)[O-])cc2C(=O)c2ccc(Br)cc2)CC1", "12.6 µM (active)"]
]}

Please look at the following compound next.
// returns reported EC50 for input CCOP(=O)(OCC)c1nc(-c2ccc(Cl)cc2Cl)oc1N1CCCCC1
> 120 µM (not active)

###

SYSTEM UNDER TEST: UniProt:Q9GZV3
Sequence (Q9GZV3 whole entry): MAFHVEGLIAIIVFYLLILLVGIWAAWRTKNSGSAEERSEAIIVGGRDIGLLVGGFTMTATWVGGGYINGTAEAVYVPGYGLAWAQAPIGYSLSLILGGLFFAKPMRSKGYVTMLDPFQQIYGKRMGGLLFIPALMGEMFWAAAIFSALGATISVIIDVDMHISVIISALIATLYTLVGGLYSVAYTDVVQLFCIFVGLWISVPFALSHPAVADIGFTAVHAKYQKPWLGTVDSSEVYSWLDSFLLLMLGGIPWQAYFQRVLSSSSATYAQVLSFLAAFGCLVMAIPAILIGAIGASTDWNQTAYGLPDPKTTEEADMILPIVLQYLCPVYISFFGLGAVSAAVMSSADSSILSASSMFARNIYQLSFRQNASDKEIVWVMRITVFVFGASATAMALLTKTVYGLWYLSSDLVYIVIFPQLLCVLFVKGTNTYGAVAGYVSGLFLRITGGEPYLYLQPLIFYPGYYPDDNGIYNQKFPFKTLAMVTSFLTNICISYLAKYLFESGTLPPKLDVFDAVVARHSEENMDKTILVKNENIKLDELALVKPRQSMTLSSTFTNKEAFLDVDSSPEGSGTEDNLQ
ASSAY NAME: human choline transporter blockers, potency – cell-based, 5-point CRC, membrane potential dye, dose response (AID 504840)
Format: functional
Active and inactive are the calls of the source.
Measured IC50 values are reported for all entries that follow.

// returns reported IC50 for input O=C(NCc1ccccc1)c1sc(=S)n2c1[nH]c(=O)c1ccccc12
22 µM (active)

Entry COc1ccccc1Nc1nnc(SCC2CCCCO2)s1 (stereo not given) please
4.17 µM (active)

Entry CN1CCCN(c2ncnc3scc(-c4ccc(F)cc4)c23)CC1 please
12.9 µM (active)

Entry Cc1ccccc1N(C)S(=O)(=O)c1ccc2ncc(C(=O)NCC3CCCO3)c(O)c2c1 (stereo not given) please
12 µM (active)

Entry CC(C)Sc1sc(C(=O)O)c(-c2ccc(Cl)cc2)c1C#N please
13.5 µM (active)

Entry Cc1nn(Cc2ccccc2Cl)c(C)c1NC(=O)c1noc2c1CCCCC2 please
13.8 µM (active)

Entry Cn1c(SCc2ccc(C#N)cc2Cl)nc2ccccc21 please
3.99 µM (active)

Entry COC(=O)c1cccc(NC(=O)c2ccc(S(=O)(=O)N3CCN(C)CC3)cc2)c1 please
14.5 µM (active)

Entry Cc1cc(C)cc(NS(=O)(=O)c2cnc(Cl)c(Cl)c2)c1 please
16.6 µM (active)

Entry COc1ccc(-n2nnnc2CNC(=O)c2ccc3ccccc3c2)cc1 please
14.5 µM (active)

###

SYSTEM UNDER TEST: Oxysterols receptor LXR-beta (Homo sapiens);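 note: HEK293 cells with Gal4-LXR fusion and GAL4-driven luciferase reporter; potency for activation of Gal4-LXR reporter so compounds are agonists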;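 note: agonist activity at LXR measured by a cell-based luminescence readout across a dose range, run as a counterscreen for daf-12 agonists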
Sequence (P55055 whole entry, the tested form may be a part): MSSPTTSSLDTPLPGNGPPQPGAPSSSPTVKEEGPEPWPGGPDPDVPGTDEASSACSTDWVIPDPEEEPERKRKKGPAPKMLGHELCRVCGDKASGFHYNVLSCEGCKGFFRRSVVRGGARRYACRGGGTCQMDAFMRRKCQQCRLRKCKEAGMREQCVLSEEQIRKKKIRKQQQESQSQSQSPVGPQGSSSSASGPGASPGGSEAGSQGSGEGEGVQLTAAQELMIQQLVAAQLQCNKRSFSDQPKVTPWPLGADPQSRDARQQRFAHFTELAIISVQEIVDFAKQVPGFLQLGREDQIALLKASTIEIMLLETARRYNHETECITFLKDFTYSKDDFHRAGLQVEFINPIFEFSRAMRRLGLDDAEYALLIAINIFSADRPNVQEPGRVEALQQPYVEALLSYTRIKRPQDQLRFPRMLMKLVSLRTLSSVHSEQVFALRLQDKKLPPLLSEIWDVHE
Type: functional, cell-based
Active and inactive are the calls of the source.
Measured EC50 values are reported for all entries that follow.

Examples with answers:
{"columns": ["MOLECULE", "EC50"],
 "data": [
  ["Cc1ccn(-c2cccc(-n3ccc(C)n3)n2)n1", "> 67.6 µM (inactive)"],
  ["COCC1CCN(Cc2nc(-c3cccs3)no2)C1 (centres undefined)", "> 67.5 µM (inactive)"],
  ["C(=C\\n1nnc2ccccc21)/c1ccccn1", "> 67.5 µM (inactive)"]
]}

Please look at the following molecule next.
// returns reported EC50 for input Cc1ccc(OCc2ccc(Br)cc2)c([N+](=O)[O-])n1
> 67.5 µM (inactive)

###

Measured IC50 values are reported for all entries that follow.
SYSTEM UNDER TEST: Sentrin-specific protease 8 (Homo sapiens)
Sequence (Q96LD8 whole entry): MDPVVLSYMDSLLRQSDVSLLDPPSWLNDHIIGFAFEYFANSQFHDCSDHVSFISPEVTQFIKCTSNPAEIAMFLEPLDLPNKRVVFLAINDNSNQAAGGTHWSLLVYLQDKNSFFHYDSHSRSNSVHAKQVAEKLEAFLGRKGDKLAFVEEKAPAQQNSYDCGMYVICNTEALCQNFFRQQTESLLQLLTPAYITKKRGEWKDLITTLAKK
Format: functional
Activity calls are given as the source filed them.

{"columns": ["CHEMICAL STRING", "IC50"],
 "data": [
  ["CCOC(=O)c1nn(-c2ccccc2C)c(=O)c2c(N)scc12", "17.3 µM (active)"],
  ["O=C(CCC(=O)N1CCc2ccccc2C1)N1CCN(S(=O)(=O)c2ccccc2)CC1", "12.9 µM (active)"],
  ["CCn1c2ccc(C)cc2c2nnc(NN)nc21", "8.84 µM (active)"]
]}

Please look at the following molecule next.
// returns reported IC50 for input O=C1Cc2ccccc2C(=O)N1OCc1ccc(Cl)cc1
11 µM (active)

###

SYSTEM UNDER TEST: Sentrin-specific protease 8 (Homo sapiens)
Sequence (Q96LD8 whole entry): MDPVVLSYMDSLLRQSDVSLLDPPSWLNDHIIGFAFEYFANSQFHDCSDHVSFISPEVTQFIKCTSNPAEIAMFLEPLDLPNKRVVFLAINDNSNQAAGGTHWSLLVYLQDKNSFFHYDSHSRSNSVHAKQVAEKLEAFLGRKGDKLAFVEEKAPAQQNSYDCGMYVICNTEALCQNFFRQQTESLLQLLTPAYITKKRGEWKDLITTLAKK
Type: functional
Activity calls are given as the source filed them.
Choose one outcome from this list and give only that: 1 (active), -1 (inactive)

{"columns": ["CHEMICAL STRING", "SYSTEM UNDER TEST", "ANSWER LABEL"],
 "data": [
  ["O=C(CCC(=O)N1CCc2ccccc2C1)N1CCN(S(=O)(=O)c2ccccc2)CC1", "Sentrin-specific protease 8 (Homo sapiens)", 1],
  ["O=C1Cc2ccccc2C(=O)N1OCc1ccc(Cl)cc1", "Sentrin-specific protease 8 (Homo sapiens)", 1],
  ["CCn1c2ccc(C)cc2c2nnc(NN)nc21", "Sentrin-specific protease 8 (Homo sapiens)", -1]
]}

With those in mind, consider the next compound.
Any idea what this test logged for CCOC(=O)c1nn(-c2ccccc2C)c(=O)c2c(N)scc12 ?
1
